# assayTarget: Sphingosine kinase 2 (Homo sapiens) (UniProt Q9NRA0)
# Sequence (whole entry): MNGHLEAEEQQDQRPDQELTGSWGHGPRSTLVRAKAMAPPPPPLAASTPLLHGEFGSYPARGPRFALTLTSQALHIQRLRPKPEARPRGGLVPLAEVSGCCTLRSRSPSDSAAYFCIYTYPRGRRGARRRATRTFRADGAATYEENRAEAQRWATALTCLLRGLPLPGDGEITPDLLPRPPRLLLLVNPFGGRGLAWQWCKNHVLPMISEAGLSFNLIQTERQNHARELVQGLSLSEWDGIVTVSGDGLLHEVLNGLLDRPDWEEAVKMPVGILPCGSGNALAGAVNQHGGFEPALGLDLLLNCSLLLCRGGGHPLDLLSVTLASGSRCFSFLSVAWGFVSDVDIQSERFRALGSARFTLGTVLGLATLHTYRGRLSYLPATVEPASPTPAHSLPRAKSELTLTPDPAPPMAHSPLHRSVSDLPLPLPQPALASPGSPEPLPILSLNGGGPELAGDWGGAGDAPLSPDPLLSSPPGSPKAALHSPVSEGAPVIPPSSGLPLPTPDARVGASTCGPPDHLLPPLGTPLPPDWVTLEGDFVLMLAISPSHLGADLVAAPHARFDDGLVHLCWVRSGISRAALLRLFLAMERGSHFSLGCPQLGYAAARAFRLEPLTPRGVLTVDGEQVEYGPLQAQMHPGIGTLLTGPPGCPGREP
# recordedConditions: at 1 µM
# Description: GSK_PKIS: SPHK2 mean inhibition at 1 uM [Nanosyn]
Catalogue of compounds with associated inhibition
quantityName: inhibition (%)

INSERT INTO results (smilesdata, assaytarget, quantityname, numericreadout) VALUES
  ('CCC(=O)Nc1ccc(C)c(-c2ccc(C(=O)NCC3CC3)cc2)c1', 'Sphingosine kinase 2 (Homo sapiens) (UniProt Q9NRA0)', 'inhibition', 0.9),
  ('CCS(=O)(=O)c1ccc(OC)c(Nc2ncc(-c3ccccc3Cl)o2)c1', 'Sphingosine kinase 2 (Homo sapiens) (UniProt Q9NRA0)', 'inhibition', -1.74),
  ('NS(=O)(=O)c1ccc(Nc2cc(-c3ccc(O)c(F)c3)n[nH]2)cc1', 'Sphingosine kinase 2 (Homo sapiens) (UniProt Q9NRA0)', 'inhibition', 0.11);
